Assay: Caco2 Permeability Assay
Assay type: in vitro ADME
Conditions: human, pH 7.4, Caco-2, 5 μM, read-out: Efflux Ratio (ER)
readout.name: efflux ratio at 2 h, 5 μM

Given CC(=O)Nc1cc(Oc2cnc3nc(Nc4cc5n(n4)CCOCC5(C)C)n(C)c3c2C#N)ccn1 , respond with its efflux ratio at 2 h, 5 μM.
2 to 5

Given COCC(=O)Nc1cc(Oc2cnc3nc(Nc4cc(C(F)(F)F)cn(C)c4=O)n(C)c3c2C#N)ccn1 , respond with its efflux ratio at 2 h, 5 μM.
≤ 2

Given Cn1cc(C(F)(F)F)cc(Nc2nc3ncc(Oc4ccnc(NC(=O)O[C@@H]5CCOC5)c4)c(C#N)c3n2C)c1=O , respond with its efflux ratio at 2 h, 5 μM.
2 to 5

Given CN(C)C(=O)Nc1cc(Oc2cnc3nc(Nc4cc(C(F)(F)F)cn(C)c4=O)n(C)c3c2C#N)ccn1 , respond with its efflux ratio at 2 h, 5 μM.
2 to 5

Given COC1CN(C(=O)Nc2cc(Oc3cnc4nc(Nc5cc6n(n5)CCC65CCC5)n(C)c4c3C#N)ccn2)C1 , respond with its efflux ratio at 2 h, 5 μM.
2 to 5

Given CC(=O)Nc1cc(Oc2cnc3nc(Nc4cc(C(F)(F)F)cn(C)c4=O)n(C)c3c2Cl)c(F)cn1 , respond with its efflux ratio at 2 h, 5 μM.
≤ 2

Given Cn1cc(C(F)(F)F)cc(Nc2nc3ncc(Oc4ccnc(NC(=O)N5CCC5)c4)c(C#N)c3n2C)c1=O , respond with its efflux ratio at 2 h, 5 μM.
2 to 5
